Target: pre-pro-insulin glargine
Listed next: entries and their corresponding Yield.

protein: trypsin variant SEQ ID NO: 18 (protein) IVGGYTCAANSIPYQVSLNSGSHRCGGSLINSQWVVSAAHCYKSRIQVRLGEHNIDVLEGNEQFINAAKIITHPNFNGNTLDNDIMLIKLSSPATLNSRVATVSLPRSCAAAGTECLISGWGNTSSSGSSYPSLLQCLKAPVLSDSSCKSSYPGQITGNMICVGFLEGGKDACQGDSGGPVVCNGQLQGIVSSGYGCAQKNKPGVYTKVCNYVNWIQQTIAAN
Yield: > 80%

protein: trypsin variant SEQ ID NO: 4 (protein) IVGGYTCAANSIPYQVSLNSGSHRCGGSLINSQWVVSAAHCYKSRIQVRLGEHNIDVLEGNEQFINAAKIITHPNFNGNTLDNDIMLIKLSSPATLNSAVATVSLPRSCAAAGTECLISGWGNTKSSGSSYPSLLQCLKAPVLSDSSCKSSYPGQITGNMICVGFLEGGKDACQGDSGGPVVCNGQLQGIVSSGYGCAQKNKPGVYTKVCNYVNWIQQTIAAN
Yield: > 90%

protein: trypsin variant SEQ ID NO: 104 (protein) IVGGYTCAANSIPYQVSLNSGSHRCGGSLINSQWVVSAAHCYKSRIQVRLGEHNIHVLEGNEQFINAAKIITHPNFNPNTLDNDIMLIKLSSPATLNSNVATVSLPTSCAAAGTECLISGWGNTCSSGSSMPSLLQCLKAPVLSDSSCKSSYPGQITGNMICVGFLEGGADACQGDSGGPVVCNGQLQGIVSSGYGCAQKNKPGVYTKVCNYVNWIQQTIAAN
Yield: > 90%
